This collection of values is drawn from the NIST ThermoML archive (doi:10.1021/je101232g).

Answer each item with its documented mass density.
conditions: 283.15 K; 2000 kPa; Liquid
# unit: kg/m3 | format: bare number

q: Please indicate mass density recorded for CCCCCCCCCCCCCC[P+](CCCCCC)(CCCCCC)CCCCCC.N#C[N-]C#N [tetradecyl(trihexyl)phosphonium dicyanamide]
a: 908.4

q: // Input: CCCCCCCCCCCCCC[P+](CCCCCC)(CCCCCC)CCCCCC.[Cl-] [trihexyl(tetradecyl)phosphonium chloride] . Output its mass density only.
a: 899.3

q: Please list mass density recorded for the compound CCCCCCCCCCCCCC[P+](CCCCCC)(CCCCCC)CCCCCC.O=S(=O)([N-]S(=O)(=O)C(F)(F)F)C(F)(F)F
a: 1078.4

q: Look up and report measured mass density for this entry: CCCCCCCCCCCCCC[P+](CCCCCC)(CCCCCC)CCCCCC.CS(=O)(=O)[O-] [trihexyltetradecylphosphonium methanesulfonate]
a: 938.9

q: Please report mass density for the following compound: CCCCCCCCCCCCCC[P+](CCCCCC)(CCCCCC)CCCCCC.[Br-] [tetradecyltrihexylphosphonium bromide]
a: 963.7
